Listed here are compounds together with their documented TGI.
- Tested on: NCI-H23 lung
- assay_text: NCI tumour cell line growth inhibition, 48 h
Please respond with the number in µM and leave the unit unwritten.

O=C(C[n+]1ccccc1)N=N/C(C(=O)Nc1c(Cl)c(O)c2ccccc2c1O)=C1/C(=O)Oc2cc(O)ccc2C1=O	17.3

# input for lookup
response.value for Cc1occc1C(=S)Nc1ccc(Cl)c(/C=N/OC(C)C)c1 (field: TGI) = 52.3

----------
- System: MALME-3M melanoma
- assay_text: NCI tumour cell line growth inhibition, 48 h
property_name: TGI (µM)
Please respond with the number in µM and leave the unit unwritten.

NC1CCCCC1N.O=S(=O)([O-])CCCN1CCOCC1.O=S(=O)([O-])CCCN1CCOCC1.[Pt+4]	22.5
O=C([CH-]C(=O)c1ccccc1)c1ccccc1.O=C([CH-]C(=O)c1ccccc1)c1ccccc1.O=C([CH-]C(=O)c1ccccc1)c1ccccc1.[OH3+].[Y+3]	47.2

# input for lookup
response.value for N#Cc1sc2c(c1OC(=O)c1cccs1)c(=O)n(-c1ccccc1)c(=S)n2-c1ccccc1 (field: TGI) = 40.7
